tested on: Escherichia coli (ATCC25922) or Staphylococcus aureus (ATCC25923); assay: Antibacterial MIC, microdilution method in Mueller-Hinton medium; format: cell-based; conditions: Escherichia coli, 18 h, read-out: Potency (MIC)
Property name: MIC

"N[C@@H]1C[C@H](N)CN(c2nc(Nc3ccc(NC(=O)c4cccc([N+](=O)[O-])c4O)cc3O)nc(N3C[C@H](N)C[C@H](N)C3)n2)C1" tested on Escherichia coli (ATCC25922) or Staphylococcus aureus (ATCC25923) gave MIC: < 64 µg/mL

"NC[C@@H]1C[C@H](CN)CN(c2nc(Nc3ccc(C(=O)Oc4ccccc4)c(O)c3)nc(N3C[C@H](N)C[C@H](N)C3)n2)C1" tested on Escherichia coli (ATCC25922) or Staphylococcus aureus (ATCC25923) gave MIC: < 64 µg/mL

"N[C@@H]1C[C@H](N)CN(c2nc(Nc3ccc(NC(=O)c4ccc(O)cc4O)cc3)nc(N3C[C@H](N)C[C@H](N)C3)n2)C1" tested on Escherichia coli (ATCC25922) or Staphylococcus aureus (ATCC25923) gave MIC: < 16 µg/mL

"N[C@@H]1C[C@H](N)CN(c2nc(Nc3ccc(-n4c5ccccc5c5ccccc54)cc3)nc(N3C[C@H](N)C[C@H](N)C3)n2)C1" tested on Escherichia coli (ATCC25922) or Staphylococcus aureus (ATCC25923) gave MIC: < 16 µg/mL

"Cc1cc(O)c(C)c(O)c1C(=O)Nc1ccc(Nc2nc(N3C[C@H](N)C[C@H](N)C3)nc(N3C[C@H](N)C[C@H](N)C3)n2)cc1" tested on Escherichia coli (ATCC25922) or Staphylococcus aureus (ATCC25923) gave MIC: < 16 µg/mL

"Cc1ccc(C(=O)Nc2ccc(Nc3nc(N4C[C@H](N)C[C@H](N)C4)nc(N4C[C@H](CN)C[C@H](CN)C4)n3)cc2O)cc1" tested on Escherichia coli (ATCC25922) or Staphylococcus aureus (ATCC25923) gave MIC: < 64 µg/mL

"N[C@@H]1C[C@H](N)CN(c2cc(Nc3ccc([N+](=O)[O-])cc3)cc(N3C[C@H](N)C[C@H](N)C3)c2)C1" tested on Escherichia coli (ATCC25922) or Staphylococcus aureus (ATCC25923) gave MIC: > 64 µg/mL
